# Tested on: MOLT-4
# assay-protocol: Growth inhibition of human MOLT4 cells incubated for 48 hrs by sulforhodamine B assay
# Format: functional
# experimental-context: MOLT-4, 48 h
Label true (1) when TGI is strictly below 7 µM; at or above that, label false (0).

Solved cases (4 shown):
[
  {
    "smiles-record": "COc1cc2cc(Oc3ccc(NC(=O)Nc4cc(C(F)(F)F)cc(C(F)(F)F)c4)cc3)c(C)nc2cc1OC",
    "subject-of-test": "MOLT-4",
    "group": "true (1)"
  },
  {
    "smiles-record": "Cc1nc2cc(O)c(O)cc2cc1Oc1ccc(NC(=O)Nc2ccc(Cl)c(Cl)c2)cc1",
    "subject-of-test": "MOLT-4",
    "group": "false (0)"
  },
  {
    "smiles-record": "CNC(=O)c1cc(Oc2ccc(NC(=O)Nc3ccc(Cl)c(C(F)(F)F)c3)cc2)ccn1",
    "subject-of-test": "MOLT-4",
    "group": "false (0)"
  },
  {
    "smiles-record": "COc1cc2cc(Oc3ccc(NC(=O)Nc4ccc(Cl)c(Cl)c4)cc3)c(C)nc2cc1OC",
    "subject-of-test": "MOLT-4",
    "group": "false (0)"
  }
]

Determine whether this molecule shows TGI lower than 7 µM (ties excluded): `COc1cc2cc(Oc3ccc(NC(=O)Nc4ccc(Cl)c(C(F)(F)F)c4)cc3)c(C)nc2cc1OC`
true (1)

====

Give GI50 for every item shown.
# Tested on: MCF7
# assay-protocol: Growth inhibition of human MCF7 cells incubated for 48 hrs by sulforhodamine B assay
# Type: functional
# experimental-context: MCF7, 48 h
Answers are plain numbers, in nM.

Worked set:
[
  {
    "smiles-record": "COc1cc2cc(Oc3ccc(NC(=O)Nc4ccc(Cl)c(C(F)(F)F)c4)cc3)c(C)nc2cc1OC",
    "result-value": 1080
  },
  {
    "smiles-record": "COc1cc2cc(Oc3ccc(NC(=O)Nc4ccc(Cl)c(Cl)c4)cc3)c(C)nc2cc1OC",
    "result-value": 2890
  },
  {
    "smiles-record": "COc1cc2cc(Oc3ccc(NC(=O)Nc4cc(C(F)(F)F)cc(C(F)(F)F)c4)cc3)c(C)nc2cc1OC",
    "result-value": 540
  },
  {
    "smiles-record": "COc1cc2cc(Oc3ccc(NC(=O)Nc4cccc(C(F)(F)F)c4)cc3)c(C)nc2cc1OC",
    "result-value": 1340
  }
]

// below: GI50 requested for another compound
Tell me its GI50 given `Cc1nc2cc(O)c(O)cc2cc1Oc1ccc(NC(=O)Nc2ccc(Cl)c(Cl)c2)cc1` as the entry.
8700

====

# Test system: SK-OV-3
# assay-protocol: Growth inhibition of human SKOV3 cells incubated for 48 hrs by sulforhodamine B assay
# Assay type: functional
# experimental-context: SK-OV-3, 48 h
value-type: GI50 (nM)
Answers are plain numbers, in nM.

Worked set:
[
  {
    "smiles-record": "COc1cc2cc(Oc3ccc(NC(=O)Nc4cccc(C(F)(F)F)c4)cc3)c(C)nc2cc1OC",
    "GI50, nM": 2060
  },
  {
    "smiles-record": "COc1cc2cc(Oc3ccc(NC(=O)Nc4ccc(Cl)c(C(F)(F)F)c4)cc3)c(C)nc2cc1OC",
    "GI50, nM": 1350
  }
]

Batch of 3 molecules: report GI50 for each.
1. Cc1nc2cc(O)c(O)cc2cc1Oc1ccc(NC(=O)Nc2ccc(Cl)c(Cl)c2)cc1
2. COc1cc2cc(Oc3ccc(NC(=O)Nc4cc(C(F)(F)F)cc(C(F)(F)F)c4)cc3)c(C)nc2cc1OC
3. COc1cc2cc(Oc3ccc(NC(=O)Nc4ccc(Cl)c(Cl)c4)cc3)c(C)nc2cc1OC

1: 11700; 2: 1710; 3: 7560

====

# Tested on: CAKI-1
# assay-protocol: Growth inhibition of human Caki1 cells assessed as cell growth at 10 uM incubated for 48 hrs by sulforhodamine B assay relative to control
# Assay type: functional
# experimental-context: CAKI-1, 48 h, read-out: Activity
Give growth at 10 µM for every item shown.
Numbers only, in %.

Worked set:
[
  {
    "smiles-record": "Cc1nc2cc(O)c(O)cc2cc1Oc1ccc(NC(=O)Nc2ccc(Cl)c(Cl)c2)cc1",
    "subject-of-test": "CAKI-1",
    "value-type": "growth at 10 µM",
    "result-value": 27.3
  },
  {
    "smiles-record": "COc1cc2cc(Sc3ccc(NC(=O)Nc4ccc(Cl)c(Cl)c4)cc3)c(C)nc2cc1OC",
    "subject-of-test": "CAKI-1",
    "value-type": "growth at 10 µM",
    "result-value": 64.5
  },
  {
    "smiles-record": "COc1cc2cc(Oc3ccc(NC(=O)Nc4ccc(C)cc4)cc3)c(C)nc2cc1OC",
    "subject-of-test": "CAKI-1",
    "value-type": "growth at 10 µM",
    "result-value": 98.2
  }
]

Tell me its growth at 10 µM given `COc1cc2cc(Oc3ccc(NC(=O)Nc4cccc(C(F)(F)F)c4)cc3)c(C)nc2cc1OC` as the entry.
9.13

====

# System: SNB-75
# assay-protocol: Growth inhibition of human SNB75 cells incubated for 48 hrs by sulforhodamine B assay
# Format: functional
# experimental-context: SNB-75, 48 h
Give GI50 for every item shown.
Numbers only, in nM.

Worked set:
[
  {
    "smiles-record": "COc1cc2cc(Oc3ccc(NC(=O)Nc4ccc(Cl)c(Cl)c4)cc3)c(C)nc2cc1OC",
    "result-value": 2330
  },
  {
    "smiles-record": "COc1cc2cc(Oc3ccc(NC(=O)Nc4cccc(C(F)(F)F)c4)cc3)c(C)nc2cc1OC",
    "result-value": 1170
  },
  {
    "smiles-record": "COc1cc2cc(Oc3ccc(NC(=O)Nc4ccc(Cl)c(C(F)(F)F)c4)cc3)c(C)nc2cc1OC",
    "result-value": 1030
  },
  {
    "smiles-record": "Cc1nc2cc(O)c(O)cc2cc1Oc1ccc(NC(=O)Nc2ccc(Cl)c(Cl)c2)cc1",
    "result-value": 7730
  }
]

Tell me its GI50 given `COc1cc2cc(Oc3ccc(NC(=O)Nc4cc(C(F)(F)F)cc(C(F)(F)F)c4)cc3)c(C)nc2cc1OC` as the entry.
1730

====

Give CC50 for every item shown.
# Tested on: T47D
# assay-protocol: Growth inhibition of human T47D cells incubated for 48 hrs by sulforhodamine B assay
# Type: functional
# experimental-context: read-out: LC50 (the source's name)
One number for each entry, in µM.

[
  {
    "smiles-record": "COc1cc2cc(Oc3ccc(NC(=O)Nc4cc(C(F)(F)F)cc(C(F)(F)F)c4)cc3)c(C)nc2cc1OC",
    "subject-of-test": "T47D",
    "CC50 (µM)": 29.1
  }
]

// below: CC50 requested for another compound
Under T47D, report CC50 for `COc1cc2cc(Oc3ccc(NC(=O)Nc4ccc(Cl)c(Cl)c4)cc3)c(C)nc2cc1OC`
84.7

====

# Tested on: HOP-62
# assay-protocol: Growth inhibition of human HOP62 cells assessed as cell growth at 10 uM incubated for 48 hrs by sulforhodamine B assay relative to control
# Format: functional
# experimental-context: HOP-62, 48 h, read-out: Activity
value-type: growth at 10 µM (%)
Give bare numbers, in %.

Worked set:
[
  {
    "smiles-record": "COc1cc2cc(Oc3ccc(NC(=O)Nc4cc(C(F)(F)F)cc(C(F)(F)F)c4)cc3)c(C)nc2cc1OC",
    "measurement-units": "%",
    "growth at 10 µM": -54.1
  },
  {
    "smiles-record": "COc1cc2cc(Oc3ccc(NC(=O)Nc4ccc(Cl)c(C(F)(F)F)c4)cc3)c(C)nc2cc1OC",
    "measurement-units": "%",
    "growth at 10 µM": -51
  },
  {
    "smiles-record": "COc1cc2cc(Oc3ccc(NC(=O)Nc4ccc(Cl)c(Cl)c4)cc3)c(C)nc2cc1OC",
    "measurement-units": "%",
    "growth at 10 µM": 55.2
  },
  {
    "smiles-record": "COc1cc2cc(Oc3ccc(NC(=O)Nc4ccc(C)cc4)cc3)c(C)nc2cc1OC",
    "measurement-units": "%",
    "growth at 10 µM": 66.9
  },
  {
    "smiles-record": "Cc1nc2cc(O)c(O)cc2cc1Oc1ccc(NC(=O)Nc2ccc(Cl)c(Cl)c2)cc1",
    "measurement-units": "%",
    "growth at 10 µM": 35.7
  },
  {
    "smiles-record": "COc1cc2cc(Oc3ccc(NC(=O)Nc4ccc(C(F)(F)F)cc4)cc3)c(C)nc2cc1OC",
    "measurement-units": "%",
    "growth at 10 µM": 18.8
  },
  {
    "smiles-record": "COc1cc2cc(Oc3ccc(NC(=O)Nc4ccccc4)cc3)c(C)nc2cc1OC",
    "measurement-units": "%",
    "growth at 10 µM": 103
  },
  {
    "smiles-record": "COc1cc2cc(Oc3ccc(NC(=O)Nc4cccc(C(F)(F)F)c4)cc3)c(C)nc2cc1OC",
    "measurement-units": "%",
    "growth at 10 µM": 25
  }
]

// below: growth at 10 µM requested for another compound
Under HOP-62, report growth at 10 µM for `COc1cc2cc(Sc3ccc(NC(=O)Nc4ccc(Cl)c(Cl)c4)cc3)c(C)nc2cc1OC`
92.6

These measurements were taken from ChEMBL document CHEMBL3994622.
